Test system: TK-10 renal
Test: NCI tumour cell line growth inhibition, 48 h
Measured endpoint: TGI (µM)
API: value field is a number in µM; no unit string.

{"Molecule": "O=C(Nc1ccc(-n2cc(-c3ccncc3)c(-c3ccc(O)c(Cl)c3)n2)cc1)Nc1cc(C(F)(F)F)cc(C(F)(F)F)c1", "Measured on": "TK-10 renal", "TGI (µM)": 13.6}

TK-10 renal / TGI / `Cc1ccc(-n2c3nc(=O)n(C)c(=O)c-3nc3ccccc32)c(C)c1` : value?
27.2

TK-10 renal / TGI / COS(=O)c1cc(Cl)cc(Cl)c1OC(=O)CSSCC(=O)Oc1c(Cl)cc(Cl)cc1S(=O)OC (configuration not stated) : value?
84

TK-10 renal / TGI / `O=C(Nc1nc2ccc(S(=O)(=O)Nc3ccc(C4(C(F)(F)F)CC4)cc3)cc2[nH]1)c1cnccn1` : value?
22.5

TK-10 renal / TGI / CCCC(O)[C@@]1(CC)CC(C)C(O)(C2(C)C[C@H](C)[C@@H](C(CC)C(=O)C(C)[C@@H](O)[C@H](C)C3OC(O)(C(CC)C(=O)O)[C@@H](C)C(O)C3CC)O2)O1 (some centres not stated) : value?
6.74

TK-10 renal / TGI / `O=C(Nc1ccccc1C(=O)NC(=O)c1ccccc1NC(=O)c1ccccc1)c1ccccc1` : value?
25.9
